B1: mRNA-splicing (parent)
chain: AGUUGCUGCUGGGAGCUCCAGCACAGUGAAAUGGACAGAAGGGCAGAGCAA

# Variants of: B1
# assay remarks: exon inclusion enrichment index; higher = more inclusion; WT1 exon 5 minigene, HEK293
Exercise: for every item that follows, state its recorded exon inclusion enrichment index.
Give bare numbers.

Sample records with exon inclusion enrichment index:
{"columns": ["mutant name", "exon inclusion enrichment index"],
 "data": [
  ["G5A U7C G8A U10C C24G A25G", 1.35],
  ["G5A C6G U7G C9A A30U A31U", 0.00264],
  ["G5A U7C G8A U10C C24G A25C", 3.54],
  ["C6A U7C C9A U10C A20C G21U", 2.72],
  ["C6A U7C C9A U10C U32C G33A", 2.3]
]}

Fill in exon inclusion enrichment index for each of the 4 variants listed.
1. G5U G8U C9U G26A U27G
2. G5A C6U U7A G8U C9A G43U C44U
3. G5C C6G U7C U10C G26U U27A
4. A37U G38U

1: 0.338; 2: 0.00909; 3: 2.22; 4: 0.0123

Fill in exon inclusion enrichment index for each of the 7 variants listed.
1. C36G
2. G5A C6U U7A G8U C9A G43A C44U
3. G5C C6G U7C U10C G26A U27A
4. G5C C6U G8C C9U U10C G28U A29U
5. G5A C6U U7A G8U C9A G33C G34U
6. G5C C6A U7C G8A U10A G38U A39U
7. C6A U7C C9A U10C A14G G15C

1: 0.0745; 2: 0.072; 3: 3.45; 4: 0.419; 5: 0.0325; 6: 0.00131; 7: 2.29

Fill in exon inclusion enrichment index for each of the 6 variants listed.
1. C6A U7C C9A U10C C24A
2. G2U U3A G5C C6A U7C G8A U10A
3. G5C C6A U7C G8A U10A G38U A39G
4. G5C C6G U7C U10C G11U G12C
5. C6A U7C C9A U10C A47C G48A
6. G5C C6A U7C G8A U10A C18A C19U

1: 2.94; 2: 0.383; 3: 0.0343; 4: 1.54; 5: 2.16; 6: 0.00173

Taken from the RNAGym collection of RNA variant scans (doi:10.1101/gr.219683.116).
